molecular target: Androgen Receptor (AR) protein (Homo sapiens, UniProt P10275, T878A); construct: endogenous in cells; host or cells: LNCaP; experiment: Androgen Receptor (AR) protein degradation assay in LNCaP cells, western blotting; assay type: cell-based; conditions: 20 h, 1 μM compound
Sequence (P10275 whole entry T878A): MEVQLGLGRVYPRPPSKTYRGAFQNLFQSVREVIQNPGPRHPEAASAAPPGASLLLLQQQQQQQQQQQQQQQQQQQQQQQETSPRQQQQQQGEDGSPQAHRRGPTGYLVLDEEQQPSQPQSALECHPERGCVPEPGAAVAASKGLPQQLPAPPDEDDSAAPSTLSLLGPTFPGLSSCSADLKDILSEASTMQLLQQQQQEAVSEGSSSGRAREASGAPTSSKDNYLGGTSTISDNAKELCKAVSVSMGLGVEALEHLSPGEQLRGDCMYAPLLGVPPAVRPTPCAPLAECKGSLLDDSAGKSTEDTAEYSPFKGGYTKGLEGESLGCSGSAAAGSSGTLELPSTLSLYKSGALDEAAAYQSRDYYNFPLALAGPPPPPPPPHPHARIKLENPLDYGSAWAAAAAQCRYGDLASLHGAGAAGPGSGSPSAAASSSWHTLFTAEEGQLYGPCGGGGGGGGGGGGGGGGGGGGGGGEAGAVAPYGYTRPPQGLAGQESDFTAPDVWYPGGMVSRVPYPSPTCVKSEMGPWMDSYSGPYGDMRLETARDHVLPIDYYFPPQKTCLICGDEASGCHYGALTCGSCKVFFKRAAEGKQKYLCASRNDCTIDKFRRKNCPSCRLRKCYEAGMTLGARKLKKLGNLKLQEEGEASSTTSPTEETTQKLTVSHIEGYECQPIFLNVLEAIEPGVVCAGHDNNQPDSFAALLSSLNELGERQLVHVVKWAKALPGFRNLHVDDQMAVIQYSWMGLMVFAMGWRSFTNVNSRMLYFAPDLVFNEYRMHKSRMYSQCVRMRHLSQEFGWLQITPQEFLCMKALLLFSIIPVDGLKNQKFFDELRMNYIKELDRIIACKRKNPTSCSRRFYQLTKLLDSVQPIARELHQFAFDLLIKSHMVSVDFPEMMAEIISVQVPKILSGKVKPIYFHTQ
Sequence (Q96SW2 whole entry partner): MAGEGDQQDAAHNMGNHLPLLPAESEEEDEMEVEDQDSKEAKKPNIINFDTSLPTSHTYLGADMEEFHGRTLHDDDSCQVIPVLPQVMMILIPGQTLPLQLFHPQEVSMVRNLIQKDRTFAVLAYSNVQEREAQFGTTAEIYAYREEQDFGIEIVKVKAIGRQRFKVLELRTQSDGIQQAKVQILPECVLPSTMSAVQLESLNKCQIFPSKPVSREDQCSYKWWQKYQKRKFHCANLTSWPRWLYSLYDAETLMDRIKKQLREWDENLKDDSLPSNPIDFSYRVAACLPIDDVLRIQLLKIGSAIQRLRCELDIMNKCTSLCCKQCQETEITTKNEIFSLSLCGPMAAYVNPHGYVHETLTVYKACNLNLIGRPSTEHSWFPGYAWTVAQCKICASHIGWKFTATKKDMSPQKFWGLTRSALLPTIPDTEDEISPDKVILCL

# compound, units-symbol, inhibition at 1 µM
rows = [
    ("N#Cc1ccc(N2CCC(C(=O)Nc3ccc(N4CCC(CN5CCN(C6CCN(c7ccc8c(c7)C(=O)N(C7CCC(=O)NC7=O)C8=O)CC6)CC5)CC4)cn3)CC2)cc1Cl (stereo not shown)", "%", 98),
    ("CN(CC1CCN(c2ccc(NC(=O)C3CCN(c4ccc(C#N)c(C(F)(F)F)c4)CC3)nc2)CC1)CC1CCN(c2ccc3c(c2)C(=O)N(C2CCC(=O)NC2=O)C3=O)CC1 (stereo not shown)", "%", 88),
    ("N#Cc1ccc(N2CCC(C(=O)Nc3ncc(N4CCC(CN5CCN(C[C@H]6CCN(c7cc8c(cc7F)C(=O)N(C7CCC(=O)NC7=O)C8=O)C6)CC5)CC4)cn3)CC2)cc1C(F)(F)F (stereo partly shown)", "%", 71),
    ("N#Cc1ccc(N2CCC(C(=O)Nc3ccc(N4CCC(CN5CC6(CCN(c7ccc8c(c7)CN(C7CCC(=O)NC7=O)C8=O)CC6)C5)CC4)cn3)CC2)cc1C(F)(F)F (stereo not shown)", "%", 85),
]
